# test_method_notes: The drug is tested on Bacteroides dorei strain: DSM17855 for biotransformation. The drug concentrations were measured before and after a 12-h incubation by liquid-chromatography-coupled mass spectrometry (LC–MS)
# measurement_conditions: phocaeicola dorei, 2 µM

| compound | Bacterial Biotransformation |
| --- | --- |
| Nc1nc2ccc(OC(F)(F)F)cc2s1 | Compound metabolized |
| CN1CCC(=C2c3ccccc3CC(=O)c3sccc32)CC1.O=C(O)/C=C/C(=O)O [KETOTIFEN FUMARATE] | Compound NOT metabolized |
| CC[C@@]1(O)C(=O)OCc2c1cc1n(c2=O)Cc2cc3c(CN(C)C)c(O)ccc3nc2-1 | Compound NOT metabolized |
| CNC(=C[N+](=O)[O-])NCCSCc1csc(CN(C)C)n1 | Compound metabolized |
| CC(C)(C)NCC(O)c1cc(Cl)c(N)c(Cl)c1 (stereo not given) | Compound NOT metabolized |

----------
# test_method_notes: The drug is tested on Clostridium symbiosum strain: ATCC14940 for biotransformation. The drug concentrations were measured before and after a 12-h incubation by liquid-chromatography-coupled mass spectrometry (LC–MS)
# measurement_conditions: 2 µM
endpoint_name: Bacterial Biotransformation

| compound | obs_value |
| --- | --- |
| COc1ccc(Cc2nccc3cc(OC)c(OC)cc23)cc1OC | Compound NOT metabolized |
| CN1C(C(=O)Nc2ccccn2)=C(O)c2sccc2S1(=O)=O | Compound NOT metabolized |
| COCCc1ccc(OCC(O)CNC(C)C)cc1.COCCc1ccc(OCC(O)CNC(C)C)cc1.O=C(O)C(O)C(O)C(=O)O (centres undefined) [METOPROLOL TARTRATE] | Compound NOT metabolized |

----------
# test_method_notes: The drug is tested on Clostridium asparagiforme strain: DSM15981 for biotransformation. The drug concentrations were measured before and after a 12-h incubation by liquid-chromatography-coupled mass spectrometry (LC–MS)
# Type: ADME
# Parameters: dose 2 uM, timepoint 0 vs 12 hours
# measurement_conditions: enterocloster asparagiformis, 2 µM
endpoint_name: Bacterial Biotransformation

| molecule | endpoint_name | obs_value |
| --- | --- | --- |
| CCN(CC)C(=O)C1(c2ccccc2)CC1CN (centres undefined) | Bacterial Biotransformation | Compound NOT metabolized |
| CN(C)CCc1c[nH]c2ccc(CS(=O)(=O)N3CCCC3)cc12 [ALMOTRIPTAN] | Bacterial Biotransformation | Compound NOT metabolized |
| CSc1ccc2c(c1)C(N1CCN(C)CC1)Cc1ccccc1S2.O=C(O)/C=C\C(=O)O (centres undefined) | Bacterial Biotransformation | Compound NOT metabolized |
| CCCN1C[C@H](CSC)C[C@@H]2c3cccc4[nH]cc(c34)C[C@H]21.CS(=O)(=O)O [PERGOLIDE MESYLATE] | Bacterial Biotransformation | Compound NOT metabolized |
| CCN(CC)C(C)CN1c2ccccc2Sc2ccccc21 (centres undefined) [ETHOPROPAZINE] | Bacterial Biotransformation | Compound NOT metabolized |
| CC(=O)Nc1ccc(OC(C)=O)cc1 [DIACETAMATE] | Bacterial Biotransformation | Compound metabolized |
| CC(=O)Oc1ccc(C(c2ccc(OC(C)=O)cc2)c2ccccn2)cc1 [BISACODYL] | Bacterial Biotransformation | Compound metabolized |
| CNC(=C[N+](=O)[O-])NCCSCc1csc(CN(C)C)n1 [NIZATIDINE] | Bacterial Biotransformation | Compound metabolized |
| COc1ccc2[nH]c([S+]([O-])Cc3ncc(C)c(OC)c3C)nc2c1 (centres undefined) [OMEPRAZOLE] | Bacterial Biotransformation | Compound metabolized |
| COCCc1ccc(OCC(O)CNC(C)C)cc1.COCCc1ccc(OCC(O)CNC(C)C)cc1.O=C(O)C(O)C(O)C(=O)O (centres undefined) [METOPROLOL TARTRATE] | Bacterial Biotransformation | Compound NOT metabolized |
| Cc1ccc(-c2cc(C(F)(F)F)nn2-c2ccc(S(N)(=O)=O)cc2)cc1 [CELECOXIB] | Bacterial Biotransformation | Compound NOT metabolized |
| CCOc1cc(CC(=O)N[C@@H](CC(C)C)c2ccccc2N2CCCCC2)ccc1C(=O)O [REPAGLINIDE] | Bacterial Biotransformation | Compound metabolized |
| C[C@H]1O[C@@H](O[C@H]2[C@@H](O)C[C@H](O[C@H]3[C@@H](O)C[C@H](O[C@H]4CC[C@@]5(C)[C@H](CC[C@@H]6[C@@H]5C[C@@H](O)[C@]5(C)[C@@H](C7=CC(=O)OC7)CC[C@]65O)C4)O[C@@H]3C)O[C@@H]2C)C[C@H](O)[C@@H]1O [DIGOXIN] | Bacterial Biotransformation | Compound NOT metabolized |
| CC1OC(OC2C(O)CC(OC3C(O)CC(OC4CCC5(C)C(CCC6C5CCC5(C)C(C7=CC(=O)OC7)CCC65O)C4)OC3C)OC2C)CC(O)C1O (centres undefined) | Bacterial Biotransformation | Compound NOT metabolized |
| C#C[C@]1(OC(C)=O)CC[C@H]2[C@@H]3CCC4=C[C@@H](OC(C)=O)CC[C@@H]4[C@H]3CC[C@@]21C [ETHYNODIOL DIACETATE] | Bacterial Biotransformation | Compound NOT metabolized |
| CN(C)C(=O)C(CCN1CCC(O)(c2ccc(Cl)cc2)CC1)(c1ccccc1)c1ccccc1 [LOPERAMIDE] | Bacterial Biotransformation | Compound NOT metabolized |
| CN1CC(=O)N2[C@H](c3ccc4c(c3)OCO4)c3[nH]c4ccccc4c3C[C@@H]2C1=O | Bacterial Biotransformation | Compound NOT metabolized |
| NC(=O)N1c2ccccc2CC(=O)c2ccccc21 [OXCARBAZEPINE] | Bacterial Biotransformation | Compound NOT metabolized |
| Cc1ccc(S(=O)(=O)NC(=O)NN2CC3CCCC3C2)cc1 (centres undefined) [GLICLAZIDE] | Bacterial Biotransformation | Compound NOT metabolized |
| CC(C(=O)O)c1ccc2c(c1)Cc1cccnc1O2 (centres undefined) [PRANOPROFEN] | Bacterial Biotransformation | Compound NOT metabolized |
| O=C(NC(Cc1cc(=O)[nH]c2ccccc12)C(=O)O)c1ccc(Cl)cc1 (centres undefined) [REBAMIPIDE] | Bacterial Biotransformation | Compound NOT metabolized |
| CCN(CC)C(=O)/C(C#N)=C/c1cc(O)c(O)c([N+](=O)[O-])c1 [ENTACAPONE] | Bacterial Biotransformation | Compound metabolized |
| Nc1ccc(/N=N/c2ccccc2)c(N)n1 [PHENAZOPYRIDINE] | Bacterial Biotransformation | Compound metabolized |
| O=C(NCc1ccccc1)OCCO [BURAMATE] | Bacterial Biotransformation | Compound NOT metabolized |
| NS(=O)(=O)c1cc2c(cc1Cl)N=C(CSCc1ccccc1)NS2(=O)=O [BENZTHIAZIDE] | Bacterial Biotransformation | Compound NOT metabolized |
| CN(C)CCOC(C)(c1ccccc1)c1ccccn1.O=C(O)CCC(=O)O (centres undefined) [DOXYLAMINE SUCCINATE] | Bacterial Biotransformation | Compound NOT metabolized |
| CCc1nc(N)nc(N)c1-c1ccc(Cl)cc1 [PYRIMETHAMINE] | Bacterial Biotransformation | Compound NOT metabolized |
| CCCCCCOC(=O)/N=C(/N)c1ccc(NCc2nc3cc(C(=O)N(CCC(=O)OCC)c4ccccn4)ccc3n2C)cc1.CS(=O)(=O)O [DABIGATRAN ETEXILATE MESYLATE] | Bacterial Biotransformation | Compound NOT metabolized |
| O=C(Nc1ccccc1)OCC(CN1CCCCC1)OC(=O)Nc1ccccc1 (centres undefined) [DIPERODON] | Bacterial Biotransformation | Compound NOT metabolized |
| O=c1[nH]c2ccccc2n1CCCN1CCC(n2c(=O)[nH]c3cc(Cl)ccc32)CC1 [DOMPERIDONE] | Bacterial Biotransformation | Compound NOT metabolized |
| CC1Cc2ccccc2N1NC(=O)c1ccc(Cl)c(S(N)(=O)=O)c1 (centres undefined) [INDAPAMIDE] | Bacterial Biotransformation | Compound NOT metabolized |
| COc1ccccc1OCC(O)CN1CCN(CC(=O)Nc2c(C)cccc2C)CC1 (centres undefined) [RANOLAZINE] | Bacterial Biotransformation | Compound NOT metabolized |
| CC(C)NCC(O)c1ccc(NS(C)(=O)=O)cc1 (centres undefined) [SOTALOL] | Bacterial Biotransformation | Compound NOT metabolized |
| Cc1ccc(-c2nc3ccc(C)cn3c2CC(=O)N(C)C)cc1 [ZOLPIDEM] | Bacterial Biotransformation | Compound NOT metabolized |

----------
# test_method_notes: The drug is tested on Alistipes indistinctus strain: DSM22520 for biotransformation. The drug concentrations were measured before and after a 12-h incubation by liquid-chromatography-coupled mass spectrometry (LC–MS)
# measurement_conditions: 2 µM

| molecule | Bacterial Biotransformation |
| --- | --- |
| CC(=O)OCC(=O)[C@@]1(O)[C@@H](C)C[C@H]2[C@@H]3CCC4=CC(=O)C=C[C@]4(C)[C@@]3(F)[C@@H](O)C[C@@]21C [BETAMETHASONE ACETATE] | Compound NOT metabolized |
| CCN(C(C)=O)c1cccc(-c2ccnc3c(C#N)cnn23)c1 [ZALEPLON] | Compound NOT metabolized |
| Cc1ccc(S(=O)(=O)NC(=O)NN2CCCCCC2)cc1 [TOLAZAMIDE] | Compound NOT metabolized |
| CC(C)(C)NCC(O)c1cc(Cl)c(N)c(Cl)c1 (stereo not drawn) [CLENBUTEROL] | Compound NOT metabolized |
| COc1ccc2c(c1)c(CC(=O)O)c(C)n2C(=O)c1ccc(Cl)cc1 [INDOMETHACIN] | Compound metabolized |
| CC(C)C[C@H]1C(=O)N2CCC[C@H]2[C@]2(O)O[C@](NC(=O)[C@@H]3C=C4c5cccc6[nH]c(Br)c(c56)C[C@H]4N(C)C3)(C(C)C)C(=O)N12.CS(=O)(=O)O [BROMOCRIPTINE MESYLATE] | Compound metabolized |
| CCOC(=O)C1=C(C)NC(C)=C(C(=O)OC)C1c1cccc([N+](=O)[O-])c1 (stereo not drawn) [NITRENDIPINE] | Compound metabolized |
| CC(C)(C(=O)O)c1ccc(C(O)CCCN2CCC(C(O)(c3ccccc3)c3ccccc3)CC2)cc1 (stereo not drawn) [FEXOFENADINE] | Compound NOT metabolized |
